assay comment: Toxicity liver stage against HepG2, at 10uM
Type: cell-based
Parameters: test concentration 10 uM, cell line HepG2-A16-CD81EGFP
condition context: human, HepG2-A16-CD81EGFP cells; read-out: INHIBITION
measurement label: cytotoxicity at 10 µM (%)
Reply numerically in %, unit not repeated.

Solved entries (count: 3):
compound: CC(C)C(=O)NC1CC2(CCN(CC(=O)N(C)C)CC2)c2ccccc21 (stereo not drawn)
cytotoxicity at 10 µM, %: -103
--
compound: CC(C)(C)OC(=O)NC1CCCN(Cc2cccc(O)c2)C1 (stereo not drawn)
cytotoxicity at 10 µM, %: -45.3
--
compound: CC(C#N)CSc1ccccc1NCC(=O)Nc1ccc(F)cc1 (stereo not drawn)
cytotoxicity at 10 µM, %: 8.19

Kindly consider the entry below.
Kindly note the recorded cytotoxicity at 10 µM for CC(C)N(C)Cc1n[nH]c2c1CCN(C(=O)c1ccc[nH]1)C2 , which is -133

###

assay comment: Toxicity liver stage against HepG2, at 10uM
Assay type: cell-based
Parameters: test concentration 10 uM, cell line HepG2-A16-CD81EGFP
condition context: human, HepG2-A16-CD81EGFP cells; read-out: INHIBITION
measurement label: cytotoxicity at 10 µM (%)
Reply numerically in %, unit not repeated.

Solved entries (count: 3):
compound: COCC1CN(c2ccc(C)nn2)Cc2cnn(C)c21 (stereo unspecified)
cytotoxicity at 10 µM, %: 11.7
--
compound: COc1ccccc1N(C)S(=O)(=O)c1cc(C(=O)O)cs1
cytotoxicity at 10 µM, %: -5.82
--
compound: CC1CCN(c2ccc(C(=O)N3CCCC3c3ccc[nH]3)cn2)CC1 (stereo unspecified)
cytotoxicity at 10 µM, %: 2.84

Kindly note the recorded cytotoxicity at 10 µM for Cc1cccnc1CN1CCN(C(=O)c2cnn(C(C)C)c2)CC1 , which is 0.616

Kindly note the recorded cytotoxicity at 10 µM for Cc1nn(C)cc1NC(=O)CN1CCC(Oc2cnccn2)CC1 , which is -4.19

Kindly note the recorded cytotoxicity at 10 µM for COc1ccc(C2CCCN2C(=O)c2csc(NC(C)=O)n2)cc1 (stereo unspecified) , which is -5.82

Kindly note the recorded cytotoxicity at 10 µM for CN(Cc1nc2c(cnn2C)c(=O)[nH]1)Cc1ccc(F)cc1F , which is -1.29

Kindly note the recorded cytotoxicity at 10 µM for CC(C)OCCCNC(=O)CSc1nnc(OC(C)C)s1 , which is -5.89

Kindly note the recorded cytotoxicity at 10 µM for O=C1COC2(CCN(Cc3cccs3)CC2)CN1c1ccccc1 , which is -4.63

Kindly note the recorded cytotoxicity at 10 µM for Cc1cc(CS(=O)(=O)NC2CCCc3ccccc32)on1 (stereo unspecified) , which is -1.57

Kindly note the recorded cytotoxicity at 10 µM for COC(=O)c1ccccc1NC(=O)c1c(C)cn(C)c1CC(=O)O , which is -6.14

###

assay comment: Toxicity liver stage against HepG2, at 10uM
Type: cell-based
Set-up: test concentration 10 uM, cell line HepG2-A16-CD81EGFP
condition context: human, HepG2-A16-CD81EGFP cells; read-out: INHIBITION
measurement label: cytotoxicity at 10 µM
A complete answer gives the number and then names the unit.

Solved entries (count: 10):
molecule: Cc1cccc(OC2(C(=O)O)CCN(C(=O)CCc3ccco3)CC2)c1
reported result: 4.3%
--
molecule: CS(=O)(=O)c1cccc(S(=O)(=O)NC(=O)CC2CCCCC2)c1
reported result: -3.17%
--
molecule: CC(C)NC(=O)C[C@@H]1CCNC[C@@H]1Cc1cc(-c2ccccn2)on1
reported result: -3.15%
--
molecule: O=C1N(c2ccsc2)CCC12CCCN(c1ccccn1)C2 (stereo not given)
reported result: -103%
--
molecule: FC(F)(F)c1cccc(OC2CCN(Cc3ccccn3)CC2)c1
reported result: -0.609%
--
molecule: CCN1CCCC12CCCN(c1ncccn1)C2 (stereo not given)
reported result: 0.113%
--
molecule: O=C1NC(c2cnc(C3CCC3)s2)Nc2ncccc21 (stereo not given)
reported result: 0.992%
--
molecule: CC(C)=CCC1(CO)CCCN(Cc2cnc(N3CCOCC3)nc2)C1 (stereo not given)
reported result: -2.6%
--
molecule: CC1(c2nccs2)CCN(C(=O)CCN2CCOCC2)CC1
reported result: 2.97%
--
molecule: NC(=O)C1CCCN1Cc1ccccc1NC(=O)Cc1cccc(F)c1 (stereo not given)
reported result: 7.31%

Kindly note the recorded cytotoxicity at 10 µM for CC/C=C(\C)CN1CCC(CNC(=O)c2ccc(=O)[nH]c2)CC1 , which is 8.06%

###

assay comment: Toxicity liver stage against HepG2, at 10uM
Assay type: cell-based
Parameters: test concentration 10 uM, cell line HepG2-A16-CD81EGFP
condition context: human, HepG2-A16-CD81EGFP cells; read-out: INHIBITION
measurement label: cytotoxicity at 10 µM (%)
Reply numerically in %, unit not repeated.

compound: CC(=O)c1cccc(NC(=O)CN2CCCC(C3OCCO3)C2)c1 (stereo not drawn)
cytotoxicity at 10 µM (%): -3.28

compound: Cc1ccc(O)c(CN(Cc2ccccc2)Cc2nccs2)n1
cytotoxicity at 10 µM (%): 0.31

compound: CC(Oc1ccc2c(c1)OCO2)C(=O)N1CCC(N2CCOCC2)CC1 (stereo not drawn)
cytotoxicity at 10 µM (%): -13.5

compound: Cn1cc(-c2nc(C3CCN(CC4CC4)CC3)cc3c2ncn3C)cn1
cytotoxicity at 10 µM (%): -1.86

compound: COc1nc(C)ccc1CNc1cc(N2CCCC2CO)ncn1 (stereo not drawn)
cytotoxicity at 10 µM (%): -8.02

Kindly note the recorded cytotoxicity at 10 µM for O=C(Nc1ccccc1Cn1cccn1)N1CCC(N2CCCC2)C1 (stereo not drawn) , which is 2.06

Kindly note the recorded cytotoxicity at 10 µM for N#Cc1ccc(OCCOc2ccccc2C(=O)N2CCOCC2)cc1 , which is -7.38

Kindly note the recorded cytotoxicity at 10 µM for CCOc1ccc(C#N)cc1NC(=O)N1CCOC(C(N)=O)C1 (stereo not drawn) , which is 12.9

###

assay comment: Toxicity liver stage against HepG2, at 10uM
Assay type: cell-based
Parameters: test concentration 10 uM, cell line HepG2-A16-CD81EGFP
condition context: human, HepG2-A16-CD81EGFP cells; read-out: INHIBITION
Listing of recorded cytotoxicity at 10 µM by entry.
Reply numerically in %, unit not repeated.

Solved entries (count: 4):
compound: CC(=O)N1CCc2nnc(C3CCCCN3CC3CC3)n2CC1 (stereo not given)
measurement label: cytotoxicity at 10 µM
readout units: %
reported result: -15.4

compound: Cc1ccc2nc(CN(C)Cc3n[nH]c4c3CCCCC4)[nH]c2c1C
measurement label: cytotoxicity at 10 µM
readout units: %
reported result: 17.1

compound: CCc1ncc2c(n1)CN(CCCOc1ccc(C#N)cc1)CC2
measurement label: cytotoxicity at 10 µM
readout units: %
reported result: 16.4

compound: Cc1cccc(NC(=O)c2cncc(C3CCNCC3)n2)n1
measurement label: cytotoxicity at 10 µM
readout units: %
reported result: 0.691

Kindly note the recorded cytotoxicity at 10 µM for Cc1cc(C(F)(F)F)n2nc(C3CCCN(S(C)(=O)=O)C3)cc2n1 (stereo not given) , which is 1.49

###

Listing of recorded cytotoxicity at 10 µM by entry.
assay comment: Toxicity liver stage against HepG2, at 10uM
Format: cell-based
Set-up: test concentration 10 uM, cell line HepG2-A16-CD81EGFP
condition context: human, HepG2-A16-CD81EGFP cells; read-out: INHIBITION
Reply numerically in %, unit not repeated.

Solved entries (count: 5):
molecule: Cn1ccnc1CN1CCN(Cc2ccc(C#N)cc2F)CC1
reported result: -13.2

molecule: O=C(OCc1cc(=O)n2cc(Br)ccc2n1)c1ccc2c(c1)OCO2
reported result: -7.37

molecule: Cc1cc(C2CCCCN2C(=O)c2cccn2C)nc2nccn12 (stereo not drawn)
reported result: -17.6

molecule: Cn1nnc2c1CCN(S(C)(=O)=O)C2COCc1ccccc1 (stereo not drawn)
reported result: -100

molecule: Cc1nc2ccccc2nc1CN1CCCC1Cn1cccn1 (stereo not drawn)
reported result: -31.4

Kindly note the recorded cytotoxicity at 10 µM for CC1(C)[C@H](Cc2cc(CO)on2)C[C@@H]1NCc1ccc(CO)o1 , which is -12.4

Kindly note the recorded cytotoxicity at 10 µM for NC(=O)C1CCN(CCCc2ccc(C(F)(F)F)cc2)CC1 , which is -0.85

Kindly note the recorded cytotoxicity at 10 µM for O=C1NC(c2ccccc2)=N[C@@]12CC[C@@H]1CN(CC3CCOCC3)C[C@@H]12 , which is 4.01

Kindly note the recorded cytotoxicity at 10 µM for Cc1nc(C)c(CC(=O)N2C[C@@H](C(=O)O)[C@H](c3ccncc3)C2)s1 , which is -127

Kindly note the recorded cytotoxicity at 10 µM for CNS(=O)(=O)c1ccc(CN2CCCN(CC(C)C)CC2)cc1 , which is 4.03

Kindly note the recorded cytotoxicity at 10 µM for CCn1cnnc1CNC(=O)NCC(C(C)C)N1CCOCC1 (stereo not drawn) , which is 13.5

Kindly note the recorded cytotoxicity at 10 µM for CCc1n[nH]c(C(=O)N2CCCC3(CN(C)C(=O)O3)C2)c1C (stereo not drawn) , which is -44.7

Kindly note the recorded cytotoxicity at 10 µM for CC(C)(NC(=O)Cc1ccccc1F)C(C)(C)C(=O)O , which is -9.1

Kindly note the recorded cytotoxicity at 10 µM for Cn1c(CN2CCC(O)CC2)nnc1C1CCCN(c2ccncc2)C1 (stereo not drawn) , which is 9.29
